- Protocol Details: viability loss with induced miR-34 in A549 – imaging, A549 dox-inducible miR-34, nuclei and caspase counts, primary screen (AID 1347080); also: test concentration not given here
- Condition: A549 miR-34 inducible, Hoechst nuclei count, 48 h; measured here: relative caspase fold change +Dox/-Dox
Square brackets hold non-standard residues; d marks the D form. Peptide text beside a SMILES is read from it. Phe(ol) = N[C@H](CO)Cc1ccccc1; Aib = CC(C)(N)C(=O)O
Kindly state fold change for each of the entries shown.
Give bare numbers.

Example results:
- Molecule: "COc1cccc2ccc(-c3nnc4ccccn34)nc12"
  Numeric Result: 1.83
- Molecule: "C[C@@]12C(=O)N(c3ccc(C(=O)Nc4cccc5cccnc45)cc3)C(=O)[C@@H]1C1C=CC2C1 (some centres not stated)"
  Numeric Result: 0.793
- Molecule: "OCC(O)COc1ccc(Cl)cc1 (configuration not stated)"
  Numeric Result: 0.44
- Molecule: "COc1ccccc1CN[C@@H]1CCCN[C@@H]1c1ccccc1"
  Numeric Result: 1.32
- Molecule: "CCCCN(CC)c1nc(C)nc2c1c(C)cn2-c1c(C)cc(C)cc1C"
  Numeric Result: 0.964

Can you give me fold change for all of these, one by one?
1. CC(=O)NC(C)(C)C(=O)N1CCC[C@H]1C(=O)NC(C)(C)C(=O)N[C@@H](C)C(=O)NC(C)(C)C(=O)N[C@@H](C)C(=O)N[C@@H](CCC(N)=O)C(=O)NC(C)(C)C(=O)N[C@H](C(=O)NC(C)(C)C(=O)NCC(=O)N[C@@H](CC(C)C)C(=O)NC(C)(C)C(=O)N1CCC[C@H]1C(=O)N[C@H](C(=O)NC(C)(C)C(=O)NC(C)(C)C(=O)N[C@@H](CCC(=O)O)C(=O)N[C@@H](CCC(N)=O)C(=O)N[C@H](CO)Cc1ccccc1)C(C)C)C(C)C (Ac-[Aib]P[Aib]A[Aib]AQ[Aib]V[Aib]GL[Aib]PV[Aib][Aib]EQ[Phe(ol)])
2. CCC(C)[C@H]1O[C@]2(CC[C@@H]1C)C[C@@H]1C[C@@H](C/C=C(\C)[C@@H](OC3C[C@H](OC)C(O[C@H]4C[C@H](OC)[C@@H](O)[C@H](C)O4)[C@H](C)O3)[C@@H](C)/C=C/C=C3\CO[C@@H]4[C@H](O)C(C)=C[C@@H](C(=O)O1)[C@]34O)O2 (some centres not stated)
3. CC(=O)O[C@]1(C(C)=O)CC[C@H]2[C@@H]3C[C@H](C)C4=CC(=O)C=C[C@]4(C)[C@@]3(F)[C@H](O)C[C@@]21C

Out:
[1.3, 1.61, 1.9]
